Assay Name: Bmi1-luciferase reporter activators in mESC, dose response, esBAF inhibitor project, mouse embryonic stem cells, cherry-pick (AID 651717);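 note: luciferase knocked into Bmi1 locus with EF-1a renilla as cell number control; rising ratio signals esBAF inhibition which derepresses Bmi1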
Test Context: firefly/renilla ratio, 24 h, hits give high values; at 35 µM unless noted
Hit rate of the full screen: of about 1,200 compounds, about 950 (79%) were called active. The set was probably picked from earlier hits. Not all results are given here. Entries with a potency or affinity are not part of this list.
Provide the reported max activity of each item.

Form: compound = Cc1ccc(S(=O)(=O)Nc2cccc(-c3ccc(N4CCCCCC4)nn3)c2)cc1 ; max activity = 29.4% [at 4.2 µM] (inactive)

Form: compound = CCn1c(=N)n(CC(=O)c2ccc(Br)s2)c2ccccc21 ; max activity = 15.9% (inactive)

Form: compound = CCCOc1c(Br)cc(C2C3=C(CCCC3=O)N(CC)C3=C2C(=O)CCC3)cc1OC ; max activity = -53.8% [at 16 µM] (inactive)

Form: compound = O=C(Nc1ccc(F)c(Cl)c1)c1cc(C2CCCN(S(=O)(=O)c3cccc4cccnc34)C2)on1 (stereo unspecified) ; max activity = 29.2% [at 16 µM] (inactive)

Form: compound = COc1ccc(N(CCC(=O)NCCc2ccccc2)S(=O)(=O)c2ccc(C)cc2C)cc1 ; max activity = 24.7% [at 8 µM] (inactive)

Form: compound = C[C@H]1CCCCO[C@H](CN(C)C(=O)NC2CCCCC2)[C@@H](C)CN([C@@H](C)CO)C(=O)c2cc(NC(=O)Nc3ccc4c(c3)OCO4)ccc2O1 ; max activity = 10.1% (inactive)

Form: compound = Cc1ccc(S(=O)(=O)Nc2cccc3c2O[C@@H](CN(C)C(=O)Nc2ccc4c(c2)OCO4)[C@@H](C)CN([C@@H](C)CO)C3=O)cc1 ; max activity = -17.3% (inactive)

Form: compound = C[C@H](CO)N1C[C@H](C)[C@H](CN(C)Cc2ccncc2)OCCCC[C@H](C)Oc2ccc(NC(=O)Nc3ccc4c(c3)OCO4)cc2C1=O ; max activity = -10.9% (inactive)

Form: compound = COc1ccc(-c2noc(C3CCCN(C(=O)Nc4ccccc4)C3)n2)cc1 (stereo unspecified) ; max activity = 16.1% (inactive)

Form: compound = C[C@@H]1CN([C@H](C)CO)C(=O)c2cc(NC(=O)Nc3ccc4c(c3)OCO4)ccc2O[C@@H](C)CCCCO[C@@H]1CN(C)S(=O)(=O)c1cn(C)cn1 ; max activity = -6.88% [at 1 µM] (inactive)

Form: compound = C[C@H](CO)N1C[C@H](C)[C@@H](CN(C)Cc2ccc(-c3ccccc3)cc2)Oc2c(NC(=O)Nc3ccc4c(c3)OCO4)cccc2C1=O ; max activity = -20.6% (inactive)

Form: compound = COC(=O)[C@H]1C[C@@]2(O)CN(S(=O)(=O)c3ccc(C)cc3)C[C@@]2(OC(=O)NCC2CCCCC2)C[C@H]1C(=O)OC ; max activity = 29.2% (inactive)

Form: compound = C[C@H](CO)N1C[C@H](C)[C@H](CN(C)C(=O)NC2CCCCC2)OCCCC[C@H](C)Oc2ccc(NC(=O)Nc3ccc4c(c3)OCO4)cc2C1=O ; max activity = 27% (inactive)

Form: compound = CN(C)c1ccc(C(=O)Nc2cccc(S(=O)(=O)NC3=NCCCCC3)c2)cc1 ; max activity = 11.6% [at 16 µM] (inactive)

Form: compound = Cc1c(Cl)cccc1N1C(=O)CC(N(O)c2ccccc2)C1=O (stereo unspecified) ; max activity = 13.3% (inactive)

Form: compound = C[C@@H]1CCCCO[C@H](CN(C)C(=O)Nc2ccc(F)cc2)[C@H](C)CN([C@@H](C)CO)C(=O)c2cc(NC(=O)Nc3ccc4c(c3)OCO4)ccc2O1 ; max activity = 7.08% [at 1 µM] (inactive)
